Recorded values, source paper PMC10916382.

For each entry below, report its % cell viability at max. dose [5 µM] value.
# Test system: Huh-7.5/F-Luc cells
# experimental_setup: at max. dose 5 µM
Where a name gives a salt, the structure may show the parent alone.
Number first, unit second: that is the form wanted.

% cell viability at max. dose [5 µM] for Huh-7.5/F-Luc cells with input Nc1ncccc1-c1nc2ccc(-c3ccccc3)nc2n1-c1ccc(C2(N)CCC2)cc1 [ARQ-092 (Miransertib mesylate)] equals 98.72%

The reported Huh-7.5/F-Luc cells % cell viability at max. dose [5 µM] of CC(C)(O)c1ccc2c(c1)/C(=C/CCN1CC[C@](O)(c3ccc(Cl)cc3)C(C)(C)C1)c1cccnc1CO2 is 122.09%

Measured % cell viability at max. dose [5 µM] (Huh-7.5/F-Luc cells), entry Cc1cccc(/C=N/Nc2cc(N3CCOCC3)nc(OCCc3ccccn3)n2)c1 [Target 16/Apilimod mesilate] : 124.74%

Bench note, Huh-7.5/F-Luc cells: CC(C)c1ccc(C(=O)c2cccs2)c(SCCCCCCCCN(C)C)n1 , % cell viability at max. dose [5 µM] reads 121.37%

====

# test_method_notes: in vitro
# experimental_setup: Anti-SARS-CoV-2 screening on Calu-3 cells: viability [% of control], Calu-3 cells
measure_name: viability at 48 h, 5 µM
Show the value, then the unit it is measured in.

Documented viability at 48 h, 5 µM of Cc1c(-c2ccc(O)cc2)n(Cc2ccc(OCCN3CCCCCC3)cc2)c2ccc(O)cc12 : 96.9%

====

# test_method_notes: in vitro
# experimental_setup: human
Answer each item with its documented viability at 5 µM.
Respond numerically; units are % and should not be typed.

viability at 5 µM in this record for Oc1ccc(Nc2ccnc3cc(Cl)ccc23)cc1CN1CCCC1 : 165

molecule Cc1nc(Nc2ncc(N3CCN(C)[C@H](C)C3)c(Nc3cc(C)n(C)n3)n2)cc(C2CC2)c1F , viability at 5 µM observed: 125

Measured viability at 5 µM, CCNCc1cc(Nc2ccnc3cc(Cl)ccc23)ccc1O : 131

Entry CCOC(=O)/C=C/[C@H](C[C@@H]1CCNC1=O)NC(=O)[C@@H](CC(=O)[C@@H](NC(=O)c1cc(C)on1)C(C)C)Cc1ccc(F)cc1 — recorded viability at 5 µM = 94.6

The molecule listed as CN(C)CCC=C1c2ccccc2C(C)(C)c2ccccc21 shows viability at 5 µM equal to 152

Kindly note the recorded viability at 5 µM for C[C@@H]1CCCN1CCc1cc2cc(-c3ccc(C#N)cc3)ccc2o1 , which is 152

Record COCCN1CCC(N(Cc2ccc(-c3ccc(C(F)(F)F)cc3)cc2)C(=O)c2ccco2)CC1 , field viability at 5 µM: 130

Looking up Cc1c(-c2ccc(O)cc2)n(Cc2ccc(OCCN3CCCCCC3)cc2)c2ccc(O)cc12 , I found its viability at 5 µM recorded as 165

GET /value?item= COc1cc(Nc2ncc(F)c(Nc3ccc4c(n3)N(COP(=O)(O)O)C(=O)C(C)(C)O4)n2)cc(OC)c1OC &field=viability at 5 µM returns 93.7

viability at 5 µM reported for this molecule Cc1c(NCCN2CCCC2)cc(C(=O)C(C)(C)C)cc1N1CCN(c2ncnc3[nH]nc(Br)c23)CC1 : 124

Entry CC(=O)N(C)C1(c2ccccc2)CCN(CCC[C@]2(c3ccc(Cl)c(Cl)c3)CCCN(C(=O)c3ccccc3)C2)CC1 ; viability at 5 µM = 131

Please fill in: viability at 5 µM reported for CCCCCCOC(=O)NC(=N)c1ccc(NCc2nc3cc(C(=O)N(CCC(=O)OCC)c4ccccn4)ccc3n2C)cc1 = 126

Short answer for CCN(CC)CCOc1ccc(-c2nc3cc(Cl)ccc3s2)cc1 : viability at 5 µM was 91.6

The reported viability at 5 µM of the molecule CN(C)CC(O)COc1ccccc1C1CC2CCC1C2 (stereo not shown) was 142

Lab note: measured viability at 5 µM of Oc1ccc2c(c1)OC[C@@H](c1ccccc1)[C@H]2c1ccc(OCCN2CCCC2)cc1 was 144

Please fill in: viability at 5 µM reported for CNc1cc(OC)c(C(=O)N[C@@H]2CCN(Cc3ccccc3)[C@@H]2C)cc1Cl = 134

====

# System: Huh-7.5/F-Luc cells
# experimental_setup: at max. dose 5 µM
Where a name gives a salt, the structure may show the parent alone. Where a SMILES comes first, the peptide text is derived from it. The star is where a group is joined. Cbz = O=C(OCc1ccccc1)*; CHN2 = [N-]=[N+]=C*
measure_name: % cell viability at max. dose [5 µM] (%)
The response must be a number in % with no trailing unit.

Record for Cc1c(-c2ccccc2)oc2ccc(OCCCCCCN3CCC(O)CC3)cc2c1=O under target or system Huh-7.5/F-Luc cells: % cell viability at max. dose [5 µM] reported as 107.69

// % cell viability at max. dose [5 µM] (Huh-7.5/F-Luc cells) for CN1C2CCC1CC(OC(c1ccccc1)c1ccc(Cl)cc1)C2.Cl (stereo not drawn) = 144.12

Form field % cell viability at max. dose [5 µM] for item c1ccc(CCCC(Oc2ccccc2OCc2ccccc2)C2=NCCN2)cc1 (stereo not drawn) on Huh-7.5/F-Luc cells: 109.08

Response field % cell viability at max. dose [5 µM] (Huh-7.5/F-Luc cells) for item COc1cc(C(C)=O)ccc1OCCCN1CCC(C(O)(c2ccc(F)cc2)c2ccc(F)cc2)CC1 : 162.61

Let me check: Oc1ccc(CCN2CCC(Nc3nc4ccccc4n3Cc3ccc(F)cc3)CC2)cc1 , system Huh-7.5/F-Luc cells, measured % cell viability at max. dose [5 µM] is 160.37

Response field % cell viability at max. dose [5 µM] (Huh-7.5/F-Luc cells) for item CN(C)CCCN1c2ccccc2Sc2ccc(Cl)cc21 : 144.29

For the compound CC[C@H](NC(=O)[C@H](CS(=O)(=O)CC1CC1)N[C@@H](c1ccc(F)cc1)C(F)(F)F)C(=O)C(=O)NC1CC1 [VBY-825, reference compound] , the measured % cell viability at max. dose [5 µM] on Huh-7.5/F-Luc cells was 147.45

// returns % cell viability at max. dose [5 µM] for OCCNCCOc1ccc(/C(=C(\c2ccccc2)C(F)(F)F)c2ccccc2)cc1 with Huh-7.5/F-Luc cells; value = 141.70

Entry C=CCc1c(OCCCNCc2ccccc2)ccc2c1[nH]c1ccccc12 under Huh-7.5/F-Luc cells had % cell viability at max. dose [5 µM] of 65.35

So the reported % cell viability at max. dose [5 µM] for CC(C)CC(NC(=O)OCc1ccccc1)C(=O)NC(C(=O)NCC(=O)C=[N+]=[N-])C(C)C (stereo not drawn) [Z LVG CHN2] (Cbz-Leu-Val-Gly-CHN2; configuration not given here) , on Huh-7.5/F-Luc cells, turned out to be 182.31

Let me check: COc1cc(/C=C/C=C/C(=O)NCCN2CCC(OC(c3ccccc3)c3ccccc3)CC2)ccc1O , system Huh-7.5/F-Luc cells, measured % cell viability at max. dose [5 µM] is 150.43

Reported Huh-7.5/F-Luc cells % cell viability at max. dose [5 µM] for item CN(C)CCCOC(CCCCc1ccccc1)c1ccccc1 (stereo not drawn) was 166.12

// returns % cell viability at max. dose [5 µM] for CN(C)CCC(Sc1cccc2ccccc12)c1cccs1 (stereo not drawn) with Huh-7.5/F-Luc cells; value = 117.62

Tested on Huh-7.5/F-Luc cells, the item C1=C(c2ccc(CN3CCCCC3)cc2)N2CCN=C2c2ccccc21 showed % cell viability at max. dose [5 µM] equal to 157.85

Summary: COc1cc2c(cc1N1C[C@@H](C)N[C@@H](C)C1)N(C(=O)c1ccc(-c3ccc(-c4noc(C)n4)cc3C)cc1)CC2 , Huh-7.5/F-Luc cells, % cell viability at max. dose [5 µM] = 143.19

For O=S(=O)(Nc1ccc(CCNC[C@H](O)c2cccnc2)cc1)c1ccc(-c2nc(-c3ccc(C(F)(F)F)cc3)cs2)cc1 on Huh-7.5/F-Luc cells, measured % cell viability at max. dose [5 µM] was 149.63

Param item: CC/C(=C(\c1ccc(O)cc1)c1ccc(OCCNC)cc1)c1ccccc1.Cl [Endoxifen (hydrochloride)] ; param system: Huh-7.5/F-Luc cells; output % cell viability at max. dose [5 µM]: 148.79

Test item Oc1ccc2c(c1)CC[C@H](c1ccccc1)[C@H]2c1ccc(OCCN2CCCC2)cc1 [Lasofoxifene tartrate] ; Huh-7.5/F-Luc cells; reported % cell viability at max. dose [5 µM] was 142.22

Entry Cc1cc(-c2nc3cc(F)ccc3s2)ccc1NC(=O)[C@@H](N)CCCCN [Phortress, reference compound] ; assay system Huh-7.5/F-Luc cells; % cell viability at max. dose [5 µM] recorded at 252.77

Param item: CCN(CC)CCCN1c2ccccc2Sc2ccc(Cl)cc21.Cl [Chlorproethazine HCl] ; param system: Huh-7.5/F-Luc cells; output % cell viability at max. dose [5 µM]: 142.02

Short answer on Huh-7.5/F-Luc cells for C=C1C[C@@H]2CC[C@@]34C[C@H]5O[C@H]6[C@@H](O3)[C@H]3O[C@H](CC[C@@H]3O[C@H]6[C@H]5O4)CC(=O)C[C@@H]3[C@@H](OC)[C@@H](C[C@H](O)CN)O[C@H]3C[C@H]3O[C@@H](CC[C@@H]1O2)C[C@@H](C)C3=C [Eribulin (mesylate)] , % cell viability at max. dose [5 µM]: 97.37

Let me check: COC(=O)C1=C(C)NC(C)=C(C(=O)OCCCCNC[C@H](O)COc2ccccc2)C1c1cccc([N+](=O)[O-])c1 (stereo partly drawn) , system Huh-7.5/F-Luc cells, measured % cell viability at max. dose [5 µM] is 137.51

Result for C#CCOc1ccc2c(c1)c(-c1ccc(C(C)C)cc1)nc(=O)n2Cc1ccc(Br)cc1 [AXT-914, reference compound] , tested on Huh-7.5/F-Luc cells, % cell viability at max. dose [5 µM]: 127.46

Measured % cell viability at max. dose [5 µM] for this entry CN1CC[C@H](c2c(O)cc(O)c3c(=O)cc(-c4ccccc4Cl)oc23)[C@H](O)C1 on Huh-7.5/F-Luc cells: 115.14

% cell viability at max. dose [5 µM] on Huh-7.5/F-Luc cells for CN(C)C(C)(C)CSc1nc2ccccc2cc1-c1ccccc1 is 138.76

// % cell viability at max. dose [5 µM] (Huh-7.5/F-Luc cells) for Cc1ccc(Sc2ccccc2C2CCNCC2)cc1 = 150.91

// % cell viability at max. dose [5 µM] (Huh-7.5/F-Luc cells) for CC(C)c1ccc2c(c1)C(N1CCN(CCO)CC1)Cc1ccc(F)cc1S2 (stereo not drawn) [isofloxythepin] = 141.51

Tested on Huh-7.5/F-Luc cells: COc1ccc2cc(S(=O)(=O)N[C@H](CC(=O)N[C@H](Cc3ccc(CN4[C@H](C)CCC[C@@H]4C)cc3)C(=O)N(C)C(C)C)c3ccc4c(c3)OCO4)ccc2c1 . Observed % cell viability at max. dose [5 µM]: 127.22

Test item COc1cc(F)ccc1-c1cc(Nc2cc(CS(C)(=N)=O)ccn2)ncc1F (single isomer, unassigned; (+)) [(+)-BAY-1251152, reference compound] ; Huh-7.5/F-Luc cells; reported % cell viability at max. dose [5 µM] was 115.26

Case CCNCc1cncc(-c2ccc3[nH]nc(-c4nc5c(F)cc(F)cc5[nH]4)c3c2)c1C , Huh-7.5/F-Luc cells, % cell viability at max. dose [5 µM] recorded as 151.27
